# Target of assay: beta-amyloid plaques in AD brain tissue (Homo sapiens, UniProt P05067)
# Construct: gauged from the concentration of Aβ1-40 and Aβ1-42 monomers; from tissue; host or cells: postmortem human AD brain grey matter; plaques isolated by SDS/sucrose centrifugation and collagenase/DNase digestion
# Sequence (P05067 672-713 limits assumed): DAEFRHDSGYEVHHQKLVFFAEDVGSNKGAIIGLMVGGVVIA
# Sequence (P05067 672-711 limits assumed): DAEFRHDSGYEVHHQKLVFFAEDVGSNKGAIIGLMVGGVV
# Assay details: In vitro binding assay: competitive displacement of [3H]6-OH-BTA-1 from isolated human AD amyloid plaques
# Condition summary: [3H]6-OH-BTA-1 as reference radioligand; isolated human AD amyloid plaques; Table 5
Metric name: Ki (nM)

a: CN(C)c1ccc(-c2cn3cc(Cl)cnc3n2)cc1 [Ligand L22]
b: CN(C)c1ccc(-c2cn3cc(Cl)ncc3n2)cc1 [Ligand L21]
c: CN(C)c1ccc(-c2nc3ccc(SCCO)cc3s2)cc1 [Ligand P1]
Give the order of the entries above, sorted from least to greatest Ki. Reply with the labels, ordered as the question asks.
c, b, a
(c: 5.7 nM, b: 88 nM, a: 147 nM)

----------
# Target of assay: beta-amyloid plaques in AD brain tissue (Homo sapiens)
# Construct: gauged from the concentration of Aβ1-40 and Aβ1-42 monomers; from tissue; host or cells: postmortem human AD brain grey matter; plaques isolated by SDS/sucrose centrifugation and collagenase/DNase digestion
# Assay details: In vitro binding assay: competitive displacement of [3H]6-OH-BTA-1 from isolated human AD amyloid plaques
# Condition summary: [3H]6-OH-BTA-1 as reference radioligand; isolated human AD amyloid plaques; Table 4
pKi: −log10 of the molar value.
Metric name: pKi

Please review the entries below; each comes with its answer.
[[record]]
molecule = "CSc1ccc2nc(-c3ccc(N(C)C)cc3)cn2c1"
target_of_assay = "beta-amyloid plaques in AD brain tissue (Homo sapiens)"
experimental_value = 8.10

[[record]]
molecule = "COc1ccc2nc(-c3ccc(N(C)C)cc3)cn2c1"
target_of_assay = "beta-amyloid plaques in AD brain tissue (Homo sapiens)"
experimental_value = 7.41

[[record]]
molecule = "CN(C)c1ccc(-c2cn3cc(Br)ccc3n2)cc1"
target_of_assay = "beta-amyloid plaques in AD brain tissue (Homo sapiens)"
experimental_value = 8.23

[[record]]
molecule = "CN(C)c1ccc(-c2cn3cc([N+](=O)[O-])ccc3n2)cc1"
target_of_assay = "beta-amyloid plaques in AD brain tissue (Homo sapiens)"
experimental_value = 8.12

[[record]]
molecule = "CN(C)c1ccc(-c2cn3cc(SCC(N)=O)ccc3n2)cc1"
target_of_assay = "beta-amyloid plaques in AD brain tissue (Homo sapiens)"
experimental_value = 6.41

[[record]]
molecule = "CNc1ccc(-c2cn3cc(SCCO)ccc3n2)cc1"
target_of_assay = "beta-amyloid plaques in AD brain tissue (Homo sapiens)"
experimental_value = 6.19

[[record]]
molecule = "CNc1ccc(-c2cn3cc(SCC(N)=O)ccc3n2)cc1"
target_of_assay = "beta-amyloid plaques in AD brain tissue (Homo sapiens)"
experimental_value = 5.74

[[record]]
molecule = "CNc1ccc(-c2cn3cc(Br)ccc3n2)cc1Br"
target_of_assay = "beta-amyloid plaques in AD brain tissue (Homo sapiens)"
experimental_value = 8.13


1: CCSc1ccc2nc(-c3ccc(N(C)C)cc3)cn2c1
2: CN(C)c1ccc(-c2cn3cc(SCCO)ccc3n2)cc1
3: CN(C)c1ccc(-c2cn3cc(Cl)ccc3n2)cc1
4: Cc1cc(-c2cn3cc(Br)ccc3n2)ccc1N
Place the items in sequence of falling pKi. // list labels; follow requested order
1, 3, 2, 4
(1: 8.08, 3: 7.62, 2: 7.06, 4: 6.18)

1: CN(C)c1ccc(-c2cn3cc(C#N)ccc3n2)cc1
2: CN(C)c1ccc(-c2cn3cc(O)ccc3n2)cc1
Looking at 1 and 2 , which one comes out lower in pKi terms? Mark your selection by writing its label.
2
(2: 6.75, 1: 8.09)

I: CN(CCCF)c1ccc(-c2cn3cc(I)ccc3n2)cc1 [Ligand L3, reference compound]
II: COc1ccc(CSc2ccc3nc(-c4ccc(N(C)C)cc4)cn3c2)cc1
III: CN(C)c1ccc(-c2cc3c(I)cc(Br)cn3c2)cc1
Hey, quick one: sort these by pKi, largest value first please. Your answer should be the labels, listed in the requested order.
II, I, III

P: CN(C)c1ccc(-c2cn3cc(F)ccc3n2)cc1
Q: CN(CCF)c1ccc(-c2cn3cc(I)ccc3n2)cc1 [Ligand L2, reference compound]
Which of the two items, P and Q , has the greater recorded pKi? Respond using the label that marks the chosen record.
P
(P: 7.89, Q: 7.51)

----------
Metric name: melting point

// worked examples, melting point included
[[record]]
molecule = "CCSc1ccc2nc(-c3ccc(N(C)C)cc3)cn2c1 [Ligand T7]"
metric_name = "melting point"
experimental_value = "168 to 171 °C"

[[record]]
molecule = "CN(C)c1ccc(-c2cn3cc(Cl)ccc3n2)cc1 [Ligand L5]"
metric_name = "melting point"
experimental_value = "234 to 236 °C"

[[record]]
molecule = "CC(=O)N(C)c1ccc(-c2cc3ccc(Br)cn3c2)cc1C [Ligand L16]"
metric_name = "melting point"
experimental_value = "197 to 198 °C"


// next item, melting point requested
Given the entry CN(C)c1ccc(-c2cn3cc(C#N)ccc3n2)cc1 [Ligand L8] , report its measured melting point.
269 to 271 °C
